Reference for the values: the supplement of paper PMC7125110

// reported self-cleavage kobs at 640 uM GlcN6P for each item listed
B1: glmS ribozyme (parent)
chain: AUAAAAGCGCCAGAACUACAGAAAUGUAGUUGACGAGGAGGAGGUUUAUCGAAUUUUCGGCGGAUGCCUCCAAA

- Variants of: B1
- protocol_notes: self-cleavage kobs at 640 uM GlcN6P; higher = faster cleavage; RNA array
- condition_parameters: with glucosamine-6-phosphate
Fewer inactive variants are shown than the library holds.
parameter: self-cleavage kobs at 640 uM GlcN6P (s⁻¹)

                             sequence_record                            parameter  cmp  measured_number
 0  AUAAAAGCGCCAGAACUACAGAAAUGUAGGUGACGAGGAGGAGGUUUAUCGAAUUCUCGGCGGAUGCCUCCAAA [U30G U56C]  self-cleavage kobs at 640 uM GlcN6P    =         0.000359
 1  AUAAAAGCGCCAGACCUACAGAAAUGUAGUUGACGAGGAAGAGGUUUAUCGAAUUUUCGGCGGAUGCCUCCAAA [A15C G40A]  self-cleavage kobs at 640 uM GlcN6P    =         0.000149
 2  AUAAAAGCGCCUGAACUACAGAAAUGUAGUUGACGAGGAGGAGGUUUAUCGAAUUUUCGGCGGAUGCCGCCAAA [A12U U69G]  self-cleavage kobs at 640 uM GlcN6P    =          9.2e-05
 3  AUAAAAGCGCCAGUACUACAGAAAUGUAGUGGACGAGGAGGAGGUUUAUCGAAUUUUCGGCGGAUGACUCCAAA [A14U U31G C67A]  self-cleavage kobs at 640 uM GlcN6P    =         0.000354
 4  AUAAAAGCGCCAGAACUACAGAAAUGUAGUUGACGAGGAGGAGGUUUAUCGAAUAUUCGGCGGAUGCGUCCAAA [U55A C68G]  self-cleavage kobs at 640 uM GlcN6P    =         8.75e-05
 5  AUAAAAGUGCCAGAACUACAGAAAUGUAGUUGACGAGGAGGAGGUUUAUGGAAUUUUCGGCGGAUGCCUCCAAA [C8U C50G]  self-cleavage kobs at 640 uM GlcN6P    =         0.000188
 6  AUAAAAGCGCCAGAACUACAGAAAUGUAGUUGACGAGGAGGAGGUCUAUCGAGCUUUCGGCGGAUGCCUCCAAA [U46C A53G U54C]  self-cleavage kobs at 640 uM GlcN6P    =         0.000673
 7  AUAAAAGCGCCAGAAAUACAGAAAUGUAGUUGACGAGGAGGAGCUUUAUCGAAUUUUCGGCGGAUGCCUCCAAA [C16A G44C]  self-cleavage kobs at 640 uM GlcN6P    <            1e-05
 8  AUAAAAGCUCCAGAACUACAGAAAUGUAGUUGACGAGGACGAGGUUUAUCGAAUUUUCGGCGGAUGCCUCCAAA [G9U G40C]  self-cleavage kobs at 640 uM GlcN6P    <            1e-05
 9  AUAAAAGCGCCAGAACUACAGAAAUGUAGUUGACAAGGAGGAGGUUUAUCGAACUUUCGGCGGCUGCCUCCAAA [G35A U54C A64C]  self-cleavage kobs at 640 uM GlcN6P    <            1e-05
10  AUAAAAGCGCCAGAACUACAGAAAUGUAGUUGACGAGGAGGAGGUUUAUCGAAUAUUCGGCGGAUGCCUGCAAA [U55A C70G]  self-cleavage kobs at 640 uM GlcN6P    =         0.000148
11  AUAAAAGCGCCAGAACUACAGAAAUGUAGUUGACGAGGAGGAGAUUUAUCGAAUAUUCGGCGGAUGCCUCCAAA [G44A U55A]  self-cleavage kobs at 640 uM GlcN6P    =         0.000113
12  AUAAAAGCGCCAGGACUACAGAAAUGUAGUCGACGAGGAGGAGGUUUAUCGAAUUAUCGGCGGAUGCCUCCAAA [A14G U31C U56A]  self-cleavage kobs at 640 uM GlcN6P    =          0.00939
13  AUAAAAGCGCUAGAACUACAGAAAUGUAGUUGACGAGGAGGCGGUUUAUCGAACUUUCAACGGAUGCCUCCAAA [C11U A42C U54C G59A G60A]  self-cleavage kobs at 640 uM GlcN6P    <            1e-05
14  AUAAAAGCGCCAGAACUACAGAAAUGUAGUUGACGAAGAGGAGGUUUAUCGAAUUUUCGGCCGAUGCCUCCAAA [G37A G62C]  self-cleavage kobs at 640 uM GlcN6P    <            1e-05
15  AUAAAAGCGCCAUAACUACAGAAAUGUAGUUGACGAGGAGGUGGUUUAUCGAAUUUUCGGCGGAUGCCUCCAAA [G13U A42U]  self-cleavage kobs at 640 uM GlcN6P    <            1e-05
16  AUAAAAGCGCCAGAACUACAGAAAUGUAGUUGACGAGGCGGAGGUUUAUCGAAAUUUCGGCGGAUGCCUCCAAA [A39C U54A]  self-cleavage kobs at 640 uM GlcN6P    =          0.00157
17  AUAAAAGCGCCAGAAUUACAGAAAUGUAGAUGACGAGGAGGAGGUUUAUCGAAUUUUCGGCGGAUGCCUCCAAA [C16U U30A]  self-cleavage kobs at 640 uM GlcN6P    =         0.000648
18  AUAAAAGCGCCAGAACUACAGAAAUGUAGUGGACGUGUAGGAGGUUUUUCGACUUUUCCGCGGCUGCCUCCAAA [U31G A36U G38U A48U A53C G59C A64C]  self-cleavage kobs at 640 uM GlcN6P    <            1e-05
19  AUAAAAGCGCCAGAACUACAGAAAUGUAGUCGACGAGGAGGAUGUUUUUCGAAUAUUCGGCGGAUGCCUCCAAA [U31C G43U A48U U55A]  self-cleavage kobs at 640 uM GlcN6P    <            1e-05
20  AUAAAAGCGCCAGAACUACAGAAAUGUAGUUGACGAGGAGGAGGUUUAUGGAAUUUUCGGCGGAAGCCUCCAAA [C50G U65A]  self-cleavage kobs at 640 uM GlcN6P    =          0.00136
21  AUAAAAGCGUCAGUAGUACAGAAAUGUAGUUGACGAGGAGGAGGGUUAUCGAAUUUUCGGCGGAUGCCUCCAAA [C10U A14U C16G U45G]  self-cleavage kobs at 640 uM GlcN6P    <            1e-05
